# TARGET: GABA-A receptor; anion channel
# PROTOCOL: Displacement of [3H]muscimol from GABA(A) receptor in Sprague-Dawley rat cortical synaptic membranes by liquid scintillation counting
PROPERTY LABEL: Ki (nM)

MOLECULE: C[C@@H](C(=O)O)[C@H]1CSC(N)=N1 (relative stereo)
TARGET: GABA-A receptor; anion channel
Ki / nM: 1600
--
MOLECULE: C[C@@H]1SC(N)=N[C@@H]1CC(=O)O (relative stereo)
TARGET: GABA-A receptor; anion channel
Ki / nM: 5500

(P) CC(C(=O)O)C1CSC(N)=N1 (stereo in doubt; l-10a)
(Q) O=C(O)CC1CNC=N1 (stereo not given)
Input: Hi! Which is lower in terms of Ki, the first one P or the second one Q ? Selection: enter the item's label.
Output: Q
(Q: 90 nM, P: 330 nM)

(1) CC(C(=O)O)C1CSC(N)=N1 (stereo in doubt; l-10b)
(2) NC1=NC(CC(=O)O)CN1 (stereo not given)
Input: Between 1 and 2 , whose recorded Ki is greater? Selection: enter the item's label.
Output: 1
(1: 1300 nM, 2: 450 nM)

(1) Nc1nc(CC(=O)O)cs1
(2) C[C@H]1SC(N)=N[C@@H]1CC(=O)O (relative stereo)
Input: Hi! Which is lower in terms of Ki, the first one 1 or the second one 2 ? Selection: enter the item's label.
Output: 2

(A) CC1(CC(=O)O)CSC(N)=N1 (stereo not given)
(B) O=C(O)C[C@@H]1CCNC1
(C) NC1=NC(CC(=O)O)CS1 (stereo not given)
(D) O=C(O)C[C@H]1CCNC1
(E) NC1=N[C@H](CC(=O)O)CS1
Input: rank_up(items): orders items by reported Ki in ascending numerical order. A complete answer lists every label in the requested sequence.
Output: E, C, D, A, B
(E: 59 nM, C: 110 nM, D: 210 nM, A: 2200 nM, B: 5600 nM)

###

# TARGET: Sodium- and chloride-dependent GABA transporter 2 (Homo sapiens) (UniProt Q9NSD5)
# Sequence (whole entry): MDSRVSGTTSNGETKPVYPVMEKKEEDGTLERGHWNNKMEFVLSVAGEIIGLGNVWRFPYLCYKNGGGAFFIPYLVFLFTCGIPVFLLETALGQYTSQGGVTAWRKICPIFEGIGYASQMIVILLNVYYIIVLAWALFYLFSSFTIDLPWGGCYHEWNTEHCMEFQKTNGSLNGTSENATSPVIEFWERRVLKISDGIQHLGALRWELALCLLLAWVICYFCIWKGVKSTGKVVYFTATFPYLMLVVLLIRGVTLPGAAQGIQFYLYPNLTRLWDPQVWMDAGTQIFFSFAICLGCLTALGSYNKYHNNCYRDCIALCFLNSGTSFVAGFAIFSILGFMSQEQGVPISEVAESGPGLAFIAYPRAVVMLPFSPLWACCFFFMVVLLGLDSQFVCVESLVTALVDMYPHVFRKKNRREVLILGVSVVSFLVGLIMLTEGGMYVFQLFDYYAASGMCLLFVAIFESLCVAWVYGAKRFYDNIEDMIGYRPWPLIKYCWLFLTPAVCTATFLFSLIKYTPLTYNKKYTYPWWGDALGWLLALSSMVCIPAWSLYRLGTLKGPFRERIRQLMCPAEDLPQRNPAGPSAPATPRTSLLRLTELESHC
# PROTOCOL: Inhibition of human GAT2 expressed in Flp-In CHO cells assessed as reduction in [3H]GABA uptake at 100 uM incubated for 3 mins by liquid scintillation counting method relative to control
# Format: cell-based
PROPERTY LABEL: inhibition

Reference set (3 entries):
COMPOUND: O=C(O)CC1CNC=N1 (centres undefined)
inhibition: > 30%
--
COMPOUND: C[C@H]1SC(N)=N[C@@H]1CC(=O)O (relative stereo)
inhibition: > 30%
--
COMPOUND: O=C(O)C[C@@H]1CCNC1
inhibition: > 30%

Sodium- and chloride-dependent GABA transporter 2 (Homo sapiens) (UniProt Q9NSD5) inhibition of NC1=NC(CC(=O)O)CN1 (centres undefined) is > 30%

###

Catalogue of compounds with associated pIC50
# TARGET: Sodium- and chloride-dependent GABA transporter 3 (Homo sapiens, UniProt P48066)
# Sequence (P48066 whole entry): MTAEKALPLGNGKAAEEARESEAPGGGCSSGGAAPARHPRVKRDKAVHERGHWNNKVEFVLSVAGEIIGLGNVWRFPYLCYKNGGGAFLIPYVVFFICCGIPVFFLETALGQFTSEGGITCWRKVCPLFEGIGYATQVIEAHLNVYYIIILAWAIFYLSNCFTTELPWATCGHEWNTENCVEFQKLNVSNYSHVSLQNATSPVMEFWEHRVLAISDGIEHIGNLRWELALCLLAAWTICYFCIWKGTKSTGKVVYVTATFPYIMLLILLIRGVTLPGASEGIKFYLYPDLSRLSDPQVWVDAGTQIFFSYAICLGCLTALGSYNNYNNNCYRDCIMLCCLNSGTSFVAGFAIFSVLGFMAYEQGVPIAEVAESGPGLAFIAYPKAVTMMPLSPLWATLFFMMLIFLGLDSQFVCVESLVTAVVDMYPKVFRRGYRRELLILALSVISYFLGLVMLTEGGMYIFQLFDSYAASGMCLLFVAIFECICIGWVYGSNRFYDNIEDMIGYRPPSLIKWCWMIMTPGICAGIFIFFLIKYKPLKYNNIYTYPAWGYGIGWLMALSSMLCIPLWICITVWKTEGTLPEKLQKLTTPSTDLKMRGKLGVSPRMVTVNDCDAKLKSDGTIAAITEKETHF
# PROTOCOL: Inhibition of human GAT3 expressed in Flp-In CHO cells assessed as reduction in [3H]GABA uptake incubated for 3 mins by liquid scintillation counting method
# Assay type: cell-based
# RUN PARAMETERS: read-out: IC50
pIC50: −log10 of the molar value.

Reference set (5 entries):
COMPOUND: C[C@@H](C(=O)O)[C@@H]1CSC(N)=N1 (relative stereo)
pIC50: < 4.00

COMPOUND: C[C@H]1SC(N)=N[C@@H]1CC(=O)O (relative stereo)
pIC50: < 4.00

COMPOUND: CC(C(=O)O)C1CSC(N)=N1 (stereo in doubt; l-10a)
pIC50: < 4.00

COMPOUND: CC(C(=O)O)C1CSC(N)=N1 (stereo in doubt; l-10b)
pIC50: < 4.00

COMPOUND: C[C@@H](C(=O)O)[C@H]1CSC(N)=N1 (relative stereo)
pIC50: < 4.00

Now consider a different compound.
Value of pIC50 reported for the compound C[C@@H]1SC(N)=N[C@@H]1CC(=O)O (relative stereo) is < 4.00

###

# TARGET: GABA-A receptor; alpha-1/beta-2/gamma-2 (Homo sapiens, UniProt P14867+P18507+P47870)
# Sequence (P14867 whole entry): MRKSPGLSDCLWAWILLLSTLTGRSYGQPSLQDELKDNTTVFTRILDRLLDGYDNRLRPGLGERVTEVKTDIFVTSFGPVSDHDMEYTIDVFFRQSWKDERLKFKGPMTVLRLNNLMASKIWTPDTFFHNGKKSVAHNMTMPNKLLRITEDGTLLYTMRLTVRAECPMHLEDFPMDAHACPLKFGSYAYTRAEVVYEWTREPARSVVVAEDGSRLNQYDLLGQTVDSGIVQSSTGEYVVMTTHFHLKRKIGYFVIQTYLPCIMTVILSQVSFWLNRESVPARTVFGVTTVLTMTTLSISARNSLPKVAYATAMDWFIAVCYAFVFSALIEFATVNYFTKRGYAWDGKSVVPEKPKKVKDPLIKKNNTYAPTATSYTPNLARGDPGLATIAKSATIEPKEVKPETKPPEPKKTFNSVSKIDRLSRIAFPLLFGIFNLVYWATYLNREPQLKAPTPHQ
# Sequence (P47870 whole entry): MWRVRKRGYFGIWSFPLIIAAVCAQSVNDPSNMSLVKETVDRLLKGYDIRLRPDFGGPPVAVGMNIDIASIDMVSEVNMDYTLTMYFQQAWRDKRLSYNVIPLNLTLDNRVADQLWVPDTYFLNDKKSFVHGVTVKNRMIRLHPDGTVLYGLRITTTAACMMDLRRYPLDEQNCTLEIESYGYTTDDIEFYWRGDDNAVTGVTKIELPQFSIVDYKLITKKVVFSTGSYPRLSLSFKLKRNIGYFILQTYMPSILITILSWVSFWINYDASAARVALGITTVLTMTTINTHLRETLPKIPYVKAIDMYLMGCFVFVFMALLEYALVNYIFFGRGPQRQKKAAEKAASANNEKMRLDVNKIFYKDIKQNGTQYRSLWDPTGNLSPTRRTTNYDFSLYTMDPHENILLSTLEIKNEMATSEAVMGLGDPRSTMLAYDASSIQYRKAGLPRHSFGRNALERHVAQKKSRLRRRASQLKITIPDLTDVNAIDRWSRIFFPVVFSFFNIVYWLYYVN
# Sequence (P18507 whole entry): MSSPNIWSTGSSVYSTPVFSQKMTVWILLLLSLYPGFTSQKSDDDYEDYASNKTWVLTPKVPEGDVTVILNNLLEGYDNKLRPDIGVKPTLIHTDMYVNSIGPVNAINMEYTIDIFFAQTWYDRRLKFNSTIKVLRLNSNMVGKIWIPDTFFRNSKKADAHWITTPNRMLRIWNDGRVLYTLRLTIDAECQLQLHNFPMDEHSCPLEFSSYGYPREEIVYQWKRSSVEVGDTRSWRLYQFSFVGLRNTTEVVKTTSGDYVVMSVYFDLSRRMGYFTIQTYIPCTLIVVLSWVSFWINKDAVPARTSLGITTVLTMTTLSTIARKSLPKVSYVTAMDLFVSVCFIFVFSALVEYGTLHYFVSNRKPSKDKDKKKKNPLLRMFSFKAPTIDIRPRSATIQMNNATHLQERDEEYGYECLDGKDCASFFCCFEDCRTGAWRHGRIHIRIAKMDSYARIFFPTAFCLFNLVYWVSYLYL
# PROTOCOL: Agonist activity at recombinant human GABA-A alpha1beta2gamma2S receptor transiently expressed in human tsA201 cells incubated for 30 mins and measured up to 90 secs by FMP dye based FLIPR membrane potential blue assay
PROPERTY LABEL: EC50 (µM)

COMPOUND: C[C@@H](C(=O)O)[C@@H]1CSC(N)=N1 (relative stereo)
PROPERTY LABEL: EC50
RESULT: 9.7

COMPOUND: NC1=N[C@@H](CC(=O)O)CS1
PROPERTY LABEL: EC50
RESULT: 12

(1) NC1=NC(CC(=O)O)CN1 (stereo not given)
(2) O=C(O)CC1CNC=N1 (stereo not given)
Input: Hi! Which is lower in terms of EC50, the first one 1 or the second one 2 ? Selection: enter the item's label.
Output: 2
(2: 7.6 µM, 1: 11 µM)

###

# TARGET: UniProtKB P30531
# Sequence (P30531 whole entry): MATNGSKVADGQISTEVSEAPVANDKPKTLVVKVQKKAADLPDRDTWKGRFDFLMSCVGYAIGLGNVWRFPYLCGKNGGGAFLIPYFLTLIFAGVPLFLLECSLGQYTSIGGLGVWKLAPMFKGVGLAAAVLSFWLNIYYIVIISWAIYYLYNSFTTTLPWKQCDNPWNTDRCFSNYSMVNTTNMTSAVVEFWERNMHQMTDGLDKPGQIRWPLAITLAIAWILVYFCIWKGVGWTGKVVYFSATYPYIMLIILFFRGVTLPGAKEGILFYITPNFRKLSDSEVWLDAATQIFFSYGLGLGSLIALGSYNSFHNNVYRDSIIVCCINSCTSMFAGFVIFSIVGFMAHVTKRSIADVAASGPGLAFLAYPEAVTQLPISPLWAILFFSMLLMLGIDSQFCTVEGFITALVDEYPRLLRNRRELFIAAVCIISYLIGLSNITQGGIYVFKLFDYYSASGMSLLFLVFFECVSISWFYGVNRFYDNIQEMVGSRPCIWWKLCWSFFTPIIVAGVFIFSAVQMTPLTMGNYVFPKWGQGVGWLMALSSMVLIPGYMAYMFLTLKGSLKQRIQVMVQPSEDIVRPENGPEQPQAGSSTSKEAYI
# Assay type: cell-based
# RUN PARAMETERS: read-out: IC50
PROPERTY LABEL: IC50 (µM)

(a) NC1=NC(CC(=O)O)CN1 (centres undefined)
(b) NC1=NC(CC(=O)O)CS1 (centres undefined)
Input: Hi! Which is lower in terms of IC50, the first one a or the second one b ? Selection: enter the item's label.
Output: a
(a: 96.9 µM, b: 179 µM)
